FYI, the data here is from ChEMBL document CHEMBL4364247.

# target.entity: 17-beta-hydroxysteroid dehydrogenase type 2 (Homo sapiens)
# Sequence (P37059 whole entry): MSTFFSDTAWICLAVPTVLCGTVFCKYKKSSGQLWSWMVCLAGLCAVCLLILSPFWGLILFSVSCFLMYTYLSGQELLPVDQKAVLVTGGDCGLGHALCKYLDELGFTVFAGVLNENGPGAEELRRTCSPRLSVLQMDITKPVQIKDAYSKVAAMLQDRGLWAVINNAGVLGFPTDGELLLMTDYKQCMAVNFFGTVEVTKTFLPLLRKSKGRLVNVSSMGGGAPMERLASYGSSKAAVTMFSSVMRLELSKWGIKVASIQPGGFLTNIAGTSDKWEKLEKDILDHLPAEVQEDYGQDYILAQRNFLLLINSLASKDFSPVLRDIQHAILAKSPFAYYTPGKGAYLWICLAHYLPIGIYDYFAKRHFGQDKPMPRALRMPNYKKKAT
# experiment: Inhibition of human placental microsomal fraction 17beta-HSD2 using [3H]-E2 as substrate in presence of NAD+ by radio-HPLC analysis
pIC50: −log10 of the molar value.
measurement.type: pIC50

a: Cc1cc(-c2ccc(C(=O)c3c(F)ccc(O)c3F)s2)cc(C)c1O
b: O=C(c1ccc(-c2cc(Cl)c(O)c(Cl)c2)s1)c1c(Cl)ccc(O)c1F
c: CS(=O)(=O)n1cc(-c2ccc(C(=O)c3c(F)ccc(O)c3F)s2)cn1
Sort the items above by pIC50, starting with the smallest value. Present the labels in the sequence the task asks for.
c, b, a
(c: 7.12, b: 7.74, a: 8.14)

A: COc1c(Cl)cc(-c2ccc(C(=O)c3c(F)ccc(O)c3Cl)s2)cc1Cl
B: CS(=O)(=O)c1cccc(-c2ccc(C(=O)c3cc(F)c(F)c(O)c3F)s2)c1
Between these two entries, A and B , state which has the higher pIC50. The response must carry the label of the picked entry.
A
(A: 8.02, B: 7.74)

1: NS(=O)(=O)Oc1ccc(-c2ccc(C(=O)c3cc(F)c(F)c(O)c3F)s2)cc1
2: COc1c(Cl)cc(-c2ccc(C(=O)c3c(Cl)ccc(O)c3F)s2)cc1Cl
3: Cc1cc(-c2ccc(C(=O)c3cc(F)cc(O)c3C)s2)cc(C)c1O
Order field: pIC50 | Direction: descending (largest first) Present the labels in the sequence the task asks for.
1, 2, 3

====

Catalogue of solubility values
# experiment: Aqueous solubility of the compound in phosphate-buffered saline at pH 7.2 after 1 to 24 hrs
# Assay type: physicochemical

>  <smiles>
NS(=O)(=O)Oc1ccc(-c2ccc(C(=O)c3cc(F)c(F)c(O)c3F)s2)cc1

>  <solubility>
> 200 µM

$$$$
>  <smiles>
Cc1cc(-c2ccc(C(=O)c3cc(F)c(F)c(O)c3C)s2)cc(C)c1O

>  <solubility>
15 to 25 µM

$$$$

Value of measured solubility for the entry "O=C(c1ccc(-c2cccc(NS(=O)(=O)c3ccccc3OC(F)(F)F)c2)s1)c1cc(F)c(F)c(O)c1F" : 25 to 50 µM

Value of measured solubility for the entry "CS(=O)(=O)c1cccc(-c2ccc(C(=O)c3cc(F)c(F)c(O)c3F)s2)c1" : > 200 µM

Value of measured solubility for the entry "O=C(c1ccc(-c2cncc(F)c2)s1)c1cc(F)c(F)c(O)c1F" : > 200 µM

====

pIC50: −log10 of the molar value.
Measurement record for 17-beta-hydroxysteroid dehydrogenase type 1 (Homo sapiens, UniProt P14061); quantity recorded: pIC50.
measurement.type: pIC50

>  <smiles>
O=C(c1ccc(-c2cc(Cl)c(O)c(Cl)c2)s1)c1c(Cl)ccc(O)c1F

>  <result.number>
8.52

$$$$
>  <smiles>
NS(=O)(=O)Oc1ccc(-c2ccc(C(=O)c3cc(F)c(F)c(O)c3F)s2)cc1

>  <result.number>
7.46

$$$$

A: COc1c(Cl)cc(-c2ccc(C(=O)c3c(Cl)ccc(O)c3F)s2)cc1Cl
B: Cc1cc(-c2ccc(C(=O)c3cc(F)cc(O)c3C)s2)cc(C)c1O
Between these two entries, A and B , state which has the higher pIC50. The response must carry the label of the picked entry.
A
(A: 9.30, B: 8.22)

====

# target.entity: Estradiol 17-beta-dehydrogenase 2 (Mus musculus, UniProt P51658)
# Sequence (P51658 whole entry): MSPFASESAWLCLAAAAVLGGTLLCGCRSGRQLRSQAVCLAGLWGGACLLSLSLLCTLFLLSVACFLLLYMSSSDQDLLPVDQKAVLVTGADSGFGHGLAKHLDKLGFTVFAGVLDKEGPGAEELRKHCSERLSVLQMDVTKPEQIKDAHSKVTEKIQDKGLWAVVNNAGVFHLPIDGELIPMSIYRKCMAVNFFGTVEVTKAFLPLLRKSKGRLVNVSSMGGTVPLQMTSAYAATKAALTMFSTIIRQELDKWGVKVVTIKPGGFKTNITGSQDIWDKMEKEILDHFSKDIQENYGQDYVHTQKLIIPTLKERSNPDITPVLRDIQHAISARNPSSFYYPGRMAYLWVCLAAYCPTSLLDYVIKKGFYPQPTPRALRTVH
measurement.type: IC50 (nM)
// note: answer is a bare numeric in nM

Value of measured IC50 for the entry "NS(=O)(=O)Oc1ccc(-c2ccc(C(=O)c3cc(F)c(F)c(O)c3F)s2)cc1" : 80
